Test: NCI Yeast Anticancer Drug Screen. Data for the bub3 strain (AID 167)
Conditions: S. cerevisiae bub3 mutant strain, at 50.0 µM, active compounds read high
About 79,000 compounds went through this panel and 15% of them were active in at least one assay; those are over-represented in the sample as a whole.
testReadout: growth inhibition (%)
Quick note: give the figure in %, leave out the unit.

* COc1cccc(NC(=O)/C(CS(=O)(=O)CCC(C(C)=O)C(C)=O)=N\NC(C)(C)C)c1 | 1.3

# return recorded growth inhibition for input CC1=NC2c3c(-c4ccc(Cl)cc4)cn(-c4ccc(C)cc4)c3N=CN2N1 (centres undefined)
0.5

Specify reported growth inhibition for the molecule shown: `O=c1ccc2c([nH]1)CCCC2`
-9.15

Provide growth inhibition value for the following molecule: CC(=O)Oc1c(C)c2c(O)c3c1C1=C(OCOC1=C(C)C3=O)/C(C)=C\C(C)(O)C(O)C(C)C(O)C1C(=O)OC(C(C)C1O)C(C)(O)/C=C/C=C(C)C(=O)N2 (centres undefined)
9.7

All figures here come from PubChem BioAssay (NCI).
